Sourced from patent US10729810B2

Molecular target: Human Prostanoid EP4 Receptor (Homo sapiens, UniProt P35408)
Construct: expressed in transfected cells; host or cells: HEK-293 cells (membrane homogenates)
Sequence (P35408 whole entry): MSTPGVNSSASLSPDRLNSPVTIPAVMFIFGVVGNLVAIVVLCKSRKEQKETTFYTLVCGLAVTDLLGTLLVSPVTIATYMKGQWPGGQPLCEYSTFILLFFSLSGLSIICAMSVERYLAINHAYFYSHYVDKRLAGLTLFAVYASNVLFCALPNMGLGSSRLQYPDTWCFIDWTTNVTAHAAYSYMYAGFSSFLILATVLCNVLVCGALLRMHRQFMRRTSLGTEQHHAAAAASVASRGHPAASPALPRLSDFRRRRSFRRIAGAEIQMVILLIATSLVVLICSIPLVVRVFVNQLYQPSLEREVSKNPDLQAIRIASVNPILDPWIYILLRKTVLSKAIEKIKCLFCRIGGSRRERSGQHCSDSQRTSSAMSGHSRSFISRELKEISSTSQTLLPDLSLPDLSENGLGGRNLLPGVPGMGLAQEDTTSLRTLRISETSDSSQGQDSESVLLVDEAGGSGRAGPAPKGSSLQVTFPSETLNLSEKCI
Assay: Radioligand binding assay, agonist site of human prostanoid EP4 receptor in transfected HEK-293 cells
Conditions: 0.5 nM [3H]PGE2, HEK-293 cell membrane homogenates; read-out: hEP4 receptor binding (nM) Ki
Experimental: Radioligand Binding Assay for the Evaluation of the Affinity of Compounds for the Agonist Site of the Human Prostanoid EP4 Receptor in Transfected HEK-293 Cells Following incubation, the samples are filtered rapidly under vacuum through glass fiber filters (GF/B, Packard) presoaked with 0.3% PEI and rinsed several times with ice-cold 50 mM Tris-HCl using a 96-sample cell harvester (Unifilter, Packard). […]
measurement kind: Ki (nM)
Give bare numbers, in nM.

Problem: // fetch Human Prostanoid EP4 Receptor (Homo sapiens, UniProt P35408) Ki for C[C@@H](CCCc1ccccc1)[C@H](O)/C=C/[C@H]1CC(F)(F)C(=O)N1CCCCCCC(=O)O
Solution: 0.89
